Data credit: PubChem BioAssay (NCI)

- Tested on: HL-60(TB) leukemia
- experimental-details: NCI-60 one-dose screen, 48 h (100 = growth as untreated, 0 = no growth, -100 = all killed)
- details: 10 µM unless noted
- Experimental: Growth inhibition of the HL-60(TB) human tumor cell line is measured as a screen for anti-cancer activity. Cells are grown in 96 well plates and exposed to the test compound for 48 hours. Compounds are tested at a single concentration, which is 10^-5 M for most compounds. The reported endpoint is percent growth (GI% or GIPRCNT), where numbers from 0 - 100% represent growth inhibition, and numbers from -100% - 0 represent cell death. For example, a value of 40 represents 60% growth inhibition. […]
About 83,000 compounds went through this panel and 20% of them were active in at least one assay; those are over-represented in the sample as a whole.
Could you mark each record Yes if its growth falls strictly under 70%, and No if it equals or exceeds it?

Please review the following examples before continuing.
1) NCc1c(O)ccc2ccccc12; No
2) O=C(Nc1ccc2cc3ccc(NC(=O)N4CCCCCC4)cc3nc2c1)N1CCCCCC1; Yes
3) CCC1=C[C@]2(C3CC(=O)N(c4ccccc4)C3=O)CC(C(C)(C)C)C[C@@H]2[C@@H]2C(=O)N(c3ccccc3)C(=O)[C@H]12 (stereo partly drawn); No

Proceed to the following item.
For COc1ccc(-c2nc3c(c(-c4ccccc4)nn3-c3ccccc3)c(-c3ccc(N4CCOCC4)cc3)c2C#N)cc1 , is the recorded growth below the cut-off of 70%?
No
